Where do the numbers come from? From paper PMC9306620.

# METHOD_NOTES: Part 2: food effect on plasma pharmacokinetics of the tablet formulation
# Type: in vivo, healthy participants
# CONDITION_SET: human, plasma, oral, 200 mg, AUC0-t, geometric LS mean, tablet 200 mg, fasted, part 2, analysis of variance, n = 13
MEASURE: AUC(0-t) (ng·h/mL)
Numbers only here, please. The scale is ng·h/mL.

Problem: Param item = C=C(C)[C@@H]1CC[C@]2(NCCN3CCS(=O)(=O)CC3)CC[C@]3(C)[C@H](CC[C@@H]4[C@@]5(C)CC=C(C6=CC[C@@](CF)(C(=O)O)CC6)C(C)(C)[C@@H]5CC[C@]43C)[C@@H]12 ; retrieve measured AUC(0-t).
Solution: 12200

* * *

# Format: in vivo, healthy participants
# CONDITION_SET: human, plasma, oral, 200 mg, AUC0-t, geometric LS mean, capsule, moderate-fat meal, part 1, analysis of variance, n = 18
MEASURE: AUC(0-t) (ng·h/mL)
Numbers only here, please. The scale is ng·h/mL.

Problem: Param item = C=C(C)[C@@H]1CC[C@]2(NCCN3CCS(=O)(=O)CC3)CC[C@]3(C)[C@H](CC[C@@H]4[C@@]5(C)CC=C(C6=CC[C@@](CF)(C(=O)O)CC6)C(C)(C)[C@@H]5CC[C@]43C)[C@@H]12 [GSK3640254] ; retrieve measured AUC(0-t).
Solution: 33700

* * *

# METHOD_NOTES: Part 2: food effect on plasma pharmacokinetics of the tablet formulation
# Format: in vivo, healthy participants
# CONDITION_SET: human, plasma, oral, 200 mg, Cmax, geometric LS mean, tablet 200 mg, high fat, part 2, analysis of variance, n = 21
MEASURE: Cmax (ng/mL)
Numbers only here, please. The scale is ng/mL.

Problem: Param item = C=C(C)[C@@H]1CC[C@]2(NCCN3CCS(=O)(=O)CC3)CC[C@]3(C)[C@H](CC[C@@H]4[C@@]5(C)CC=C(C6=CC[C@@](CF)(C(=O)O)CC6)C(C)(C)[C@@H]5CC[C@]43C)[C@@H]12 ; retrieve measured Cmax.
Solution: 1080
